Here is a set of molecules with reported pIC50 for ROCK2 (Homo sapiens), compiled from the literature.
One number for each entry, as −log10 of the molar value.

# count of solved cases: 3
# molecule, obs-value
data = [
    ("CN1CCN(c2ccc(C(=O)N3CCC4(CC3)CCN(c3ccc(-c5ccnc(O)c5)cc3)C4=O)cc2)CC1", 7.27),
    ("Cn1c(C(=O)N2CC(F)(F)C2)cc2ccc(-c3ncc(Cl)c(Nc4ccc(-c5cn[nH]c5)cc4)n3)cc21", 7.23),
    ("CN(C(=O)c1cc2ccc(-c3nccc(Nc4ccc(-c5cn[nH]c5)cc4)n3)cc2[nH]1)C1CCNC1 (stereo not shown)", 6.48),
]

Consider the following items and state reported pIC50 for each.
1. O=C(c1cc2ccc(-c3nccc(Nc4ccc(-c5cn[nH]c5)cc4)n3)cc2[nH]1)N1CC(F)C1
2. COc1ccc2nc(NC(=O)Cc3ccc(Oc4ncccc4C(N)=O)c(F)c3)n(CC3CC3)c2c1
3. NC(=O)c1cccnc1O[C@H]1C[C@]2(C1)C[C@H](N1C(=O)NC(CC3CCCC3)C1=O)C2 (stereo partly shown)

Reply:
[7.54, 7.41, 7.52]

Consider the following items and state reported pIC50 for each.
1. O=C(c1ccc(OC(F)(F)F)cc1)N1CCC2(CC1)CCN(c1ccc(-c3cn[nH]c3)cc1)C2=O
2. CCC(C)CC1NC(=O)N([C@H]2C[C@@]3(C[C@H](Oc4ncccc4C(N)=O)C3)C2)C1=O (stereo partly shown)

Reply:
1. 7.02
2. 7.72
